# Test system: NCI-N87 cells
# protocol.summary: Anti-proliferation assay of NCI-N87 cells (CCK-8)
# Format: cell-based
# reported.conditions: Homo sapiens, 72h, read-out: Cell Proliferation Inhibition IC50 (nM) NCI-N87
result.type: IC50

Enquiry: What value of IC50 has been recorded for this entry: "CN(C)C/C=C/C(=O)Nc1cc2c(Nc3ccc(F)c(Cl)c3)ncnc2cc1C#C[C@@H]1[C@H]2COC[C@@H]12"
Return: < 100 nM

---

# protocol.summary: Rat pharmacokinetics studies (plasma)
# Format: in vivo, Sprague Dawley rats
# reported.conditions: male, Sprague Dawley; rat plasma, IV 1 mg/Kg
result.type: clearance (mL/min/kg)
One number for each entry, in mL/min/kg.

Enquiry: Look up clearance: "CN(C)C/C=C/C(=O)Nc1cc2c(Nc3ccc(F)c(Cl)c3)ncnc2cc1C#C[C@@H]1[C@H]2COC[C@@H]12"
Return: 105

---

# protocol.summary: Rat brain concentration
# Type: in vivo, Sprague Dawley rats
# reported.conditions: Sprague Dawley, brain, po, 5 mg/kg, P.O. 5 mg/Kg, 24 hr, read-out: Brain Conc. (ng/g) No. 1
result.type: concentration at 24 h (ng/g)
Give bare numbers, in ng/g.

Enquiry: Any idea what concentration at 24 h was measured for "CN(C)C/C=C/C(=O)Nc1cc2c(Nc3ccc(F)c(Cl)c3)ncnc2cc1C#C[C@@H]1[C@H]2COC[C@@H]12" ?
Return: 26

---

# protocol.summary: Rat brain concentration
# Type: in vivo, Sprague Dawley rats
# reported.conditions: Sprague Dawley, brain/plasma, predetermined time points, read-out: Brain/plasma concentration ratio
result.type: Kp

Enquiry: Recorded Kp for CN(C)C/C=C/C(=O)Nc1cc2c(Nc3ccc(F)c(Cl)c3)ncnc2cc1O[C@H]1CCOC1 [afatinib, reference compound] , please?
Return: < 0.05

---

# protocol.summary: Rat brain concentration
# Assay type: in vivo, Sprague Dawley rats
# reported.conditions: Sprague Dawley, brain, po, 5 mg/kg, P.O. 5 mg/Kg, 2 hr, read-out: Brain Conc. (ng/g) No. 2
result.type: concentration at 2 h (ng/g)
Numbers only, in ng/g.

Enquiry: I have this molecule here, "CN(C)C/C=C/C(=O)Nc1cc2c(Nc3ccc(F)c(Cl)c3)ncnc2cc1C#C[C@@H]1[C@H]2COC[C@@H]12" , and I need its recorded concentration at 2 h.
Return: 156

---

# protocol.summary: Rat brain concentration
# Assay type: in vivo, Sprague Dawley rats
# reported.conditions: Sprague Dawley, brain/plasma, po, P.O. 5 mg/Kg, 2 hr, read-out: B/P ratio
result.type: Kp at 2 h
Give bare numbers.

Enquiry: GET /values?readout=Kp at 2 h&item= "CN(C)C/C=C/C(=O)Nc1cc2c(Nc3ccc(F)c(Cl)c3)ncnc2cc1C#C[C@@H]1[C@H]2COC[C@@H]12"
Return: 4

---

# protocol.summary: Rat pharmacokinetics studies (plasma)
# Assay type: in vivo, Sprague Dawley rats
# reported.conditions: male, Sprague Dawley; rat plasma, IV 1 mg/Kg
result.type: AUC(0-t)
Answer with the figure and its unit, nothing else.

Enquiry: // query AUC(0-t) value for entry "CN(C)C/C=C/C(=O)Nc1cc2c(Nc3ccc(F)c(Cl)c3)ncnc2cc1C#C[C@@H]1[C@H]2COC[C@@H]12"
Return: 135 ng·h/mL

---

# protocol.summary: Rat brain concentration
# Type: in vivo, Sprague Dawley rats
# reported.conditions: Sprague Dawley, brain, po, 5 mg/kg, P.O. 5 mg/Kg, 24 hr, read-out: Brain Conc. (ng/g) Mean
result.type: concentration at 24 h (ng/g)
One number for each entry, in ng/g.

Enquiry: Form field: reported concentration at 24 h of CN(C)C/C=C/C(=O)Nc1cc2c(Nc3ccc(F)c(Cl)c3)ncnc2cc1C#C[C@@H]1[C@H]2COC[C@@H]12 [Example 4]
Return: 17.6

---

# protocol.summary: Rat brain concentration
# Type: in vivo, Sprague Dawley rats
# reported.conditions: Sprague Dawley, brain, po, 5 mg/kg, P.O. 5 mg/Kg, 4 hr, read-out: Brain Conc. (ng/g) Mean
result.type: concentration at 4 h (ng/g)
Numbers only, in ng/g.

Enquiry: What measured concentration at 4 h goes with "CN(C)C/C=C/C(=O)Nc1cc2c(Nc3ccc(F)c(Cl)c3)ncnc2cc1C#C[C@@H]1[C@H]2COC[C@@H]12" ?
Return: 173
